- assayed.target: T1, huCLL1-Q244-Avi-Tev-His (human, UniProt Q5QGZ9 65-265)
- T1 construct: extracellular domain; also called CLL-1 K244Q
- T1 sequence (looked up): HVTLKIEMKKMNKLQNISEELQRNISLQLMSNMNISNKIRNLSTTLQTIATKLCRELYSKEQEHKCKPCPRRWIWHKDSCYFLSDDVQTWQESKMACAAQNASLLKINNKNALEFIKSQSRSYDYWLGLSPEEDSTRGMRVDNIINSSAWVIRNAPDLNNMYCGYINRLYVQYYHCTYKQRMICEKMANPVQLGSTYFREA
- measurement.notes: BLI

# binder, binding result
data = [
    ("Polypeptide No. 194 (scFv, V domains shown, scFv) VH: QVQLVQSGAEVKKPGASVKVSCKASGVTFSNSGINWVRQAPGQGLEWMGWMNPASGDTGYAQKFQGRVTMTRDTSTSTVYMELSSLRSEDTAVYYCARGEYGAEYFQHWGQGTLVTVSS VL: DIQMTQSPSSLSASVGDRVTITCRASQSISSWLAWYQQKPGKAPKLLIYDASSLESGVPSRFSGSGSGTDFTLTISSLQPEDFATYYCQQSHSLPPTFGQGTRLEIKR", "binds"),
    ("Polypeptide No. 183 (scFv, V domains shown, scFv) VH: QVQLVQSGAEVKKPGSSVKVSCKASGGTFSSYAISWVRQAPGQGLEWMGGIIPKFGPPNYAPKFQGRVTITADESTSTAYMELSSLRSEDTAVYYCARNSYGDDFDYWGQGTLVTVSS VL: DIQMTQSPSSLSASVGDRVTITCRASQSISSWLAWYQQKPGKAPKLLIYAASSLQRGVPSRFSGSGSGTDFTLTISSLQPEDFATYYCQQSYSTPLTFGQGTKVEIKR", "binds"),
    ("Polypeptide No. 181 (scFv, V domains shown, scFv) VH: QVQLVQSGAEVKKPGASVKVSCKASGYTFTGYYMHWVRQAPGQGLEWMGVINPSGGSTSYAQKFQGRVTMTRDTSTSTVYMELSSLRSEDTAVYYCARGRTDDAFDIWGQGTLVTVSS VL: DIQMTQSPSSLSASVGDRVTITCRASQTISSWLAWYQQKPGKAPKLLIYAASTLQSGVPSRFSGSGSGTDFTLTISSLQPEDFATYYCQQSYSIPLTFGGGTKLEIKR", "binds"),
]
